system: ATP; assay: switch fluorescence ratio, 500 uM ATP over buffer (Cy3 cluster intensity, sum of 5 cycles each) (fold (ratio)); higher = stronger signal-on switching upon ATP binding; sequences stand for … in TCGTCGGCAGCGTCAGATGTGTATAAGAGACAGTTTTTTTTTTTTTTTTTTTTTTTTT…TC; details: aptamer strand: ATP DNA aptamer (quencher-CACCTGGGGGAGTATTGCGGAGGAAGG + anchor), 100 nM annealed; ATP concentration: 500 uM;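 further: ATP exposure 15 min at 22 °C before imaging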
Experimental Endpoint: switch fluorescence ratio
Give bare numbers.

// for each sequence in input: emit switch fluorescence ratio
1. GGGTGAGGTA
2. ATATATGAGG
3. AATGTCAGAG
4. TGGAAGAGGG
5. ATGTTCACGG
6. AGGGGGTGGG

Ans.
0.979
0.974
0.986
1
1.01
0.989

// for each sequence in input: emit switch fluorescence ratio
1. TGTCAAAAAT
2. TTCGCGTGTT
3. TTTAACTTAG
4. CAACAAGGCA
5. ACTAGGGTAT

Ans.
1: 0.982; 2: 1; 3: 1.02; 4: 1.02; 5: 0.982

// for each sequence in input: emit switch fluorescence ratio
1. GATGTAAAGC
2. GGGGTATGTC
3. GTTATCGTGC
4. CTGTCAGATT
5. ACTAGGGTTG
6. TTTCTCGTTG

Ans.
[1.02, 1.02, 0.992, 0.974, 0.993, 0.991]

// for each sequence in input: emit switch fluorescence ratio
1. TGCAGGAAAC
2. AATGACGAGC
3. ATATGTTGTT
4. AGGATACCGC
5. GCGTGTGGTC

Ans.
1.05
1.04
0.98
1.12
1.02

// for each sequence in input: emit switch fluorescence ratio
1. TCGGAAAGGA
2. GAGGGCTTGG
3. CCGGGGACTG
4. TTGGGGACGA
5. GAAAGCTGAG
6. CGTGAATTTG

Ans.
1. 0.981
2. 1.05
3. 1.1
4. 0.997
5. 1.18
6. 0.987

// for each sequence in input: emit switch fluorescence ratio
1. CGGATCGGGT
2. CTTTGTCGCT
3. CACCGGAAAA
4. CCGGGCCAGC
5. CAGCCAAATA
6. TAGGATTGGC
7. ATGGTGGTTT

Ans.
1
1.01
1.09
1.47
1.1
1.04
0.998

// for each sequence in input: emit switch fluorescence ratio
1. GGGGTATGCT
2. AGGGTACGGG

Ans.
1. 1.03
2. 1.06

* * *

test system: ATP; experiment: switch fluorescence ratio, 500 uM ATP over buffer (Cy3 cluster intensity, sum of 5 cycles each) (fold (ratio)); higher = stronger signal-on switching upon ATP binding; sequences stand for … in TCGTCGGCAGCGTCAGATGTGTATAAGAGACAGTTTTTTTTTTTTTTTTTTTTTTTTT…TC; settings: aptamer strand: ATP DNA aptamer (quencher-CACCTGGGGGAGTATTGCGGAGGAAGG + anchor), 100 nM annealed; ATP concentration: 500 uM;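 further: ATP exposure 15 min at 22 °C before imaging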
Experimental Endpoint: switch fluorescence ratio
Answers are plain numbers.

In the examples that follow, each entry is paired with its recorded switch fluorescence ratio.
{"columns": ["Input Sequence", "Test Target", "switch fluorescence ratio"],
 "data": [
  ["GTGACAGGGG", "ATP", 1.05],
  ["TAATATCGGG", "ATP", 0.98],
  ["GCAGGTGGCG", "ATP", 1.01],
  ["TTTGATTGCG", "ATP", 1],
  ["GTAACTCGAA", "ATP", 0.982],
  ["CATACTCTTC", "ATP", 1],
  ["GATCGGTAAT", "ATP", 1.04],
  ["AAGTTGTGAA", "ATP", 1.01],
  ["TTCGGAGCGG", "ATP", 1.34],
  ["TTGTGTAGGG", "ATP", 1.01]
]}

// for each sequence in input: emit switch fluorescence ratio
1. GGGGACAAGT
2. CGTATGTGGT
3. CTTCTAGGCA
4. CATTGCGAGG
5. GGTCGCATTC
6. TCAAAGATAA
7. ACAATTGGTC

Ans.
[1.02, 0.97, 1.04, 1.02, 1.05, 0.989, 1.02]

// for each sequence in input: emit switch fluorescence ratio
1. AGAAAAAGGT
2. AGGAGGGGGA

Ans.
[1.01, 1.03]

// for each sequence in input: emit switch fluorescence ratio
1. ATAGTGATAT
2. GTTTAAGGGC
3. TCACGGTGTC
4. TTTGATTGCA
5. CAATAATTTG
6. TAGAGACTAA
7. GGAGATATTA
8. TTTAGGTGGT

Ans.
1: 1.06; 2: 0.988; 3: 1.11; 4: 1.03; 5: 0.992; 6: 0.979; 7: 1.01; 8: 1.11

// for each sequence in input: emit switch fluorescence ratio
1. TGCGTGAAGT
2. GAGCCTTATG

Ans.
1. 1.04
2. 0.994

// for each sequence in input: emit switch fluorescence ratio
1. TCCAAGTGTG
2. TTTAGTCCCC
3. TGAAAGCCAC

Ans.
[1.03, 1.06, 1.1]

// for each sequence in input: emit switch fluorescence ratio
1. AACAGTCGCG
2. TTAATGGTTA
3. AAAGTGTTCC
4. CGAGGGGGGC
5. TTCTTTTATA
6. CGGTGGTTTG
7. GGTAGATTTT
8. ATAGGTCAAC

Ans.
0.968
1.02
1.03
1.02
0.99
0.996
0.979
0.992

// for each sequence in input: emit switch fluorescence ratio
1. ATTAAGTGTT
2. AGGGCGGATT
3. TTTGACAAGC
4. CATTGAATAC

Ans.
[0.984, 1.01, 1.15, 1.36]

// for each sequence in input: emit switch fluorescence ratio
1. TTAAAACCTT
2. ATAGATCCTT
3. GGTGAGGGAG
4. CAGACGTTTT
5. GGGCTGGATG
6. TGTGGCAGTT
7. CCAAGGAGTC
8. TAAGGCGCCG

Ans.
[1.56, 1, 1, 0.992, 0.993, 1.02, 0.992, 0.962]
